Dear all, I have gathered published pIC50 values for Tyrosine-protein kinase JAK2 (Homo sapiens, UniProt O60674); the list follows.
pIC50: −log10 of the molar value.

# example entries with known answers
>>> result("[2H]C1([2H])C([C@@H](CC(N)=O)n2cc(-c3ncnc4[nH]ccc34)cn2)C([2H])([2H])C([2H])([2H])C1([2H])[2H]")
"> 7.00"
>>> result("COCCC(C1CCC1)n1cc(-c2nc(-c3cnn(C)c3)cc3nccn23)cn1 (centres unmarked)")
"6.00 to 7.00"

Enquiry: Give pIC50 only, for N#CCC(=O)Nc1ccc(-c2ncnc(Nc3ccc(N4CCN(C5COC5)CC4)cc3)n2)cc1C#N , using Tyrosine-protein kinase JAK2 (Homo sapiens, UniProt O60674) data.
Return: 7.92

Enquiry: Give pIC50 only, for CCC(CC)n1cc(-c2nc(-c3cnn([C@H](C)[C@@H](O)CO)c3)cn3nccc23)cn1 (single isomer, unassigned) , using Tyrosine-protein kinase JAK2 (Homo sapiens, UniProt O60674) data.
Return: 7.00 to 8.00

* * *

Dear all, I have gathered published IC50 values for Tyrosine-protein kinase JAK2 (Homo sapiens); the list follows.

>>> result("NC(=O)c1cnc(Nc2ccc3c(c2)NC[C@H](OCC(=O)O)CO3)nc1NC1CC1")
"< 10 nM"

Enquiry: For the molecule N#CCC(=O)NC1CCN(n2cnc3cnc4[nH]ccc4c32)C1 (stereo not drawn) , report IC50.
Return: 29.1 nM

Enquiry: For the molecule CN1CCN(c2ccc(Nc3ncc(C#N)c(Nc4cccc(CC#N)c4)n3)cc2F)CC1 , report IC50.
Return: > 1000 nM

Enquiry: For the molecule N#Cc1cc(-c2ncnc(Nc3ccc(N4CCN(C5COC5)CC4)cc3)n2)ccc1O[C@H]1CCN(C(=O)c2ccc[nH]2)C[C@H]1F , report IC50.
Return: 356 nM

* * *

Dear all, I have gathered published IC50 values for Tyrosine-protein kinase JAK2 (Homo sapiens, UniProt O60674); the list follows.

# example entries with known answers
>>> result("C[C@@H]1CN(S(=O)(=O)Nc2ccc(Nc3nccc(-c4cnn(C(CC#N)C5CCCC5)c4)n3)cc2)C[C@H](C)O1 (mixture of isomers)")
"< 100 nM"
>>> result("CCn1nc(Nc2nc3c(cc(C(=O)N(C4CC4)C4CC4)n3CC)c3c2ncn3C)cc1C(=O)NCCNC(C)=O")
"1.52 nM"
>>> result("CC(=O)Nc1cc(Oc2ccc3nc(Nc4ccc(F)cc4F)n(C)c3c2)ccn1")
"3080 nM"
>>> result("CN(c1ncnc2[nH]ccc12)C1CC2(C1)CN(C(=O)CO)C2")
"100 to 1000 nM"
>>> result("C=CC(=O)Nc1cccc(Nc2nccc(Sc3ncccn3)n2)c1")
"> 1000 nM"

Enquiry: Give IC50 only, for CCC(CC)n1cc(-c2nc(-c3cnn(CCN4CC[C@H](OC)C4)c3)cn3nccc23)cn1 , using Tyrosine-protein kinase JAK2 (Homo sapiens, UniProt O60674) data.
Return: 10 to 100 nM

Enquiry: Give IC50 only, for COc1cc(N2CCNCC2)ccc1Nc1ncc2ccn(Cc3cccnc3N(C)S(C)(=O)=O)c2n1 , using Tyrosine-protein kinase JAK2 (Homo sapiens, UniProt O60674) data.
Return: > 1000 nM

Enquiry: Give IC50 only, for CCC(=O)c1cnc(Nc2ncc(O[C@@H]3CCN(C)C3)cc2F)cc1Nc1cccc(-c2ncn(C)n2)c1OC , using Tyrosine-protein kinase JAK2 (Homo sapiens, UniProt O60674) data.
Return: ≥ 500 nM

Enquiry: Give IC50 only, for O=C(NCCCC(F)(F)F)c1noc2c1CN(c1ncnc3[nH]ccc13)CC2 , using Tyrosine-protein kinase JAK2 (Homo sapiens, UniProt O60674) data.
Return: 100 to 500 nM

Enquiry: Give IC50 only, for N#Cc1ccccc1S(=O)(=O)n1cc(F)c2cnc(Nc3ccc(N4CCNCC4)cc3)nc21 , using Tyrosine-protein kinase JAK2 (Homo sapiens, UniProt O60674) data.
Return: < 20 nM
